B1: LOXL2 (parent)
chain: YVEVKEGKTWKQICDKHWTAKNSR

# Variants of: B1
# PROTOCOL DESCRIPTION: protein stability index of a GFP-peptide fusion (GPS, HEK-293T) (PSI 1-6); higher = more stable;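 also: lentivirally expressed fusions sorted by FACS into six bins by GFP to DsRed ratio, PSI derived from sequencing read proportions per bin multiplied by bin number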
# SETUP CONDITIONS: c terminus: a fixed tail appended
Give measured protein stability index for each item. Keep answers brief.
Give bare numbers.

Sample answers from the record:
A20R; 2.71
K8T; 1.55
K11C; 2.28
N22E; 2.25
K21F; 3.06
Q12L; 2.39
K8P; 2.63

Now for the variant whose protein stability index we want.
Prompt: Name the reported protein stability index value associated with the variant Y1S
Response: 3.71
